double positive events values by entry
# Assay details: reduced mouse 2C T cell binding to pMHC/ICAM-1 vesicles – MLPCN validation set, flow cytometry, LFA-1/ICAM-1 modulator project, pilot screen (AID 2523)
# Test parameters: 2C mouse CD8+ T cells, at 7 µM, stronger effect = lower value; measured here: CD8+/vesicle+ event percentage
Quick reminder: number only, in %, skip the unit.

Example compounds with recorded double positive events:
INSERT INTO measurements (compound, measurement_type, observed_value) VALUES
  ('C/C(CCc1oc2ccc(Cl)cc2c1-c1ccc(C)o1)=N\O', 'double positive events', 63.1),
  ('COc1ccc(NC(=S)N2CCN(CCN3C(=O)c4cccc5cccc(c45)C3=O)CC2)cc1', 'double positive events', 59.1),
  ('Cc1ccc2c(c1)c1c3n2CCCN(Cc2ccccc2)C3CCC1 (stereo unspecified)', 'double positive events', 77.6),
  ('C[C@]12CC[C@@H]3c4ccc(O)cc4CC[C@H]3[C@@H]1CC[C@@H]2O', 'double positive events', 63),
  ('COc1ccc(N2C(=O)[C@@H]3[C@H](C2=O)[C@H]2c4ccccc4C=CN2[C@@H]3C(C)=O)cc1', 'double positive events', 64.6);

Given the compound CC(C[N+](C)(C)C)OC(N)=O (stereo unspecified) , what is its reported double positive events?
66.5

---

percent of DMSO control GFP: recorded values
# Assay details: rapamycin-like changes in RPL19A-GFP expression – cell-based, S. cerevisiae, multiplex flow cytometry, primary screen (AID 1862);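 further: lower values mimic rapamycin by blocking the RPL19A rise seen in DMSO cells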
# Test parameters: S. cerevisiae RPL19A-GFP strain, flow cytometry fluorescence, 3 h; at 10 µM; stronger effect = lower value
Inconclusive results are not listed.
Record the value in %, omitting the unit from your answer.

Below, each entry is followed by its recorded percent of DMSO control GFP result.
INSERT INTO assay_data (compound, measurement_type, unit_name, observed_value) VALUES
  ('CN1[C@@H]2CC[C@H]1CC(OC(=O)C(CO)c1ccccc1)C2 (stereo not given in full)', 'percent of DMSO control GFP', '%', 99.6),
  ('Cc1ccc2c(c1)C1OCCC1C1N2C(=O)C2C(C(=O)O)C3C=CC21O3 (stereo not given)', 'percent of DMSO control GFP', '%', 104),
  ('NCCCC(N)(C(=O)O)C(F)F (stereo not given)', 'percent of DMSO control GFP', '%', 93.5),
  ('Cn1c(SCC(=O)c2ccccc2)nnc1-c1ccncc1', 'percent of DMSO control GFP', '%', 99),
  ('C/C(=N\NC(=O)C1(C)CC1(Br)Br)c1ccc([N+](=O)[O-])cc1 (stereo not given)', 'percent of DMSO control GFP', '%', 105),
  ('COc1cc(NC(=S)NC(=O)c2cccs2)ccc1NC(=O)C(C)C', 'percent of DMSO control GFP', '%', 99.7),
  ('O=C(Cc1c[nH]c2ccccc12)OCCOC(=O)Cc1c[nH]c2ccccc12', 'percent of DMSO control GFP', '%', 104),
  ('CC(=O)[C@H]1CC[C@H]2[C@@H]3C[C@H](C)C4=CC(=O)CC[C@]4(C)[C@H]3[C@@H](O)C[C@]12C', 'percent of DMSO control GFP', '%', 95.9);

Look at this compound and give its reported percent of DMSO control GFP. CC12CCC(C(=O)NCc3ccc4c(c3)OCO4)(CC1=O)C2(C)C (stereo not given)
100

Requested field: percent of DMSO control GFP. Item: "C[C@]12CC[C@@H]3c4ccc(O)cc4CC[C@H]3[C@@H]1CC[C@@H]2O"
98.8

---

# System under test: Beta-adrenergic receptor kinase 1 (Homo sapiens) (UniProt P25098)
# Sequence (P25098 whole entry, looked up): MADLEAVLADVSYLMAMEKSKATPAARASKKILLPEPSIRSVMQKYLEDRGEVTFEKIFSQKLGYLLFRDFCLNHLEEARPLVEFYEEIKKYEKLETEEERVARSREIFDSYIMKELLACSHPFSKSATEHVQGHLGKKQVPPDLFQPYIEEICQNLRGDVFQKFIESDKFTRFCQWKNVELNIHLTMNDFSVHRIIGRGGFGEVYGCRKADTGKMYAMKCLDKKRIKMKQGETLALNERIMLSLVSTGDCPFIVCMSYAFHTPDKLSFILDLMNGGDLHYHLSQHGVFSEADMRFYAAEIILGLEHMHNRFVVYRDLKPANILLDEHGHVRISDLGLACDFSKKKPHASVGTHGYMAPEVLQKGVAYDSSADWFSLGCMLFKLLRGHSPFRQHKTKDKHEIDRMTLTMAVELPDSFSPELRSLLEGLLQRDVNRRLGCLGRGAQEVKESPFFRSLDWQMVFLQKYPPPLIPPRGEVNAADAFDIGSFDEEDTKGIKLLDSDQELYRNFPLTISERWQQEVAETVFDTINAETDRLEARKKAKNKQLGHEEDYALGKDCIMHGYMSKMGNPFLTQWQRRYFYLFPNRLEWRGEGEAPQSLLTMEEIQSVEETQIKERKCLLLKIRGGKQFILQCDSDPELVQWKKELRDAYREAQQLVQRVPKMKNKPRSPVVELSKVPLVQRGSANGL
# Assay details: GRK2 binders displacing RNA aptamer, biochemical, validation, human GRK2, bead flow cytometry (AID 488806)
# Test parameters: bead-bound GRK2, FAM-aptamer displacement, at 10 µM, stronger effect = higher value
Measurement type: aptamer binding inhibition (%)
Numeric answer only, unit % assumed.

Some solved cases for reference:
INSERT INTO measurements (molecule, system_under_test, measurement_type, unit_name, observed_value) VALUES
  ('COc1ccc(C(=O)Nc2cccnc2)cc1C(=O)Nc1cccnc1', 'Beta-adrenergic receptor kinase 1 (Homo sapiens) (UniProt P25098)', 'aptamer binding inhibition', '%', 2),
  ('CC1CCN(C(=O)Oc2ccccc2)CC1', 'Beta-adrenergic receptor kinase 1 (Homo sapiens) (UniProt P25098)', 'aptamer binding inhibition', '%', 0),
  ('CCN(CC)CCNC(=O)c1cc(Cl)c(N)cc1OC', 'Beta-adrenergic receptor kinase 1 (Homo sapiens) (UniProt P25098)', 'aptamer binding inhibition', '%', 5),
  ('COc1cc(C(=O)N/C(=C\c2cn(C)c3ccccc23)C(=O)NCCCO)cc(OC)c1OC', 'Beta-adrenergic receptor kinase 1 (Homo sapiens) (UniProt P25098)', 'aptamer binding inhibition', '%', 2),
  ('COc1ccc(-c2csc(-c3cccnc3)n2)cc1C', 'Beta-adrenergic receptor kinase 1 (Homo sapiens) (UniProt P25098)', 'aptamer binding inhibition', '%', 4),
  ('CCOC(=O)C(=Cc1ccccc1OC)C(=O)OCC', 'Beta-adrenergic receptor kinase 1 (Homo sapiens) (UniProt P25098)', 'aptamer binding inhibition', '%', -2),
  ('CN1[C@@H]2CC[C@H]1CC(OC(=O)C(CO)c1ccccc1)C2 (stereo not given in full)', 'Beta-adrenergic receptor kinase 1 (Homo sapiens) (UniProt P25098)', 'aptamer binding inhibition', '%', 25),
  ('Cc1cc(OCC(=O)C(C)(C)C)c2c(C)c(C)c(=O)oc2c1', 'Beta-adrenergic receptor kinase 1 (Homo sapiens) (UniProt P25098)', 'aptamer binding inhibition', '%', 7),
  ('COc1c2ccoc2nc2c(OC)cccc12', 'Beta-adrenergic receptor kinase 1 (Homo sapiens) (UniProt P25098)', 'aptamer binding inhibition', '%', 5),
  ('CC1(C)S[C@@H]2[C@H](NC(=O)Cc3ccccc3)C(=O)N2[C@H]1C(=O)O', 'Beta-adrenergic receptor kinase 1 (Homo sapiens) (UniProt P25098)', 'aptamer binding inhibition', '%', 3);

I would be grateful if you could share the reported aptamer binding inhibition for CCOc1ccc(CC2CCC(=O)NC2=O)cc1 (stereo not given) .
6

What aptamer binding inhibition value was documented for this molecule, "O=C1c2cccc3cccc(c23)C(=O)N1c1ccccn1" ?
4

Name the reported aptamer binding inhibition value associated with the molecule "CCCCC[C@H](O)/C=C/C1=C(CCCCCCC(=O)O)C(=O)CC1"
4

---

Each entry below carries its reported vesicle binding response.
# Assay details: reduced mouse 2C T cell binding to pMHC/ICAM-1 vesicles – MLPCN validation set, flow cytometry, LFA-1/ICAM-1 modulator project, pilot screen (AID 2523);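 on vesicle binding response: mean PE anti-B7-1 fluorescence of CD8+ cells relative to row control; 100% = QL9-loaded vesicles with DMSO vehicle in the same plate row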
# Test parameters: 2C mouse CD8+ T cells, at 7 µM, stronger effect = lower value
Active and inactive are the calls of the source.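 Rule for the calls: active = response below a set limit, under 55% cells CD8-positive and vesicle-bound, and CD8 cells' 90th-percentile brightness under 279; inactive = the rest.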

Answered cases to consult:
INSERT INTO measurements (compound, observed_value) VALUES
  ('Cc1cn([C@H]2C=C[C@@H](CO)O2)c(=O)[nH]c1=O', '705% (inactive)'),
  ('CCN(CC)CCCNC(=O)C1c2ccccc2Oc2ccccc21', '1360% (inactive)'),
  ('Cc1ccc(C(=O)Nc2ccc(O)cc2C(=O)O)cc1C', '274% (inactive)'),
  ('Cc1ccccc1C(=O)NCC(=O)O', '130% (inactive)');

Endpoint output: vesicle binding response of O=C1CC(c2ccc(O)cc2)Oc2cc(O)cc(O)c21 (stereo not drawn) . Value?
238% (inactive)

I'd like to know its vesicle binding response. The compound in question is "Cc1cc(Cl)cc2c1NC(=O)[C@]21[C@@H]2C(=O)N(Cc3ccccc3)C(=O)[C@@H]2[C@@H]2CCCN21"
154% (inactive)

Report vesicle binding response for OCCC1CN(Cc2nc(-c3ccccc3)cs2)CCN1Cc1ccc(F)cc1 (stereo not drawn) please.
312% (inactive)

Dear colleague, I am looking for the recorded vesicle binding response of the following compound: "O=C(CN1C(=O)/C(=C/c2cccc(Br)c2)SC1=S)Nc1cccnc1"
59.7% (inactive)

Find the recorded vesicle binding response belonging to CC(=O)N(CCC1(c2ccc(C)cc2)CCOC(C(C)C)C1)Cc1ccco1 (stereo not drawn) and report it.
74.9% (active)

For the compound shown here, CC(C[N+](C)(C)C)OC(N)=O (stereo not drawn) , give the reported vesicle binding response.
164% (inactive)

State the recorded vesicle binding response for this entry: "COc1c(C=O)c(CCN(C)C(=O)c2ccc(F)cc2)cc2c1OCO2"
171% (inactive)

---

# Assay details: Nile Red efflux blockade in pump-expressing yeast – validation compound set, multiplex, phenotypic, pilot screen (AID 588506);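 further: Nile Red retained in cells so higher fluorescence means more efflux inhibition; 0 = negative control wells and 1 = enniatin B 25 µM full block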
# Test parameters: S. cerevisiae pump-expressing triplex, Nile Red efflux flow cytometry; at 10 µM; stronger effect = higher value; the pumps come from Candida albicans
Field 'label' (enum: rule met / rule not met). Set to rule met when efflux inhibition (fraction of control) is strictly under 0; else rule not met.

A record lists O=C1c2ccccc2C2(c3ccccc3)NCCN12 (centres undefined) . Is its efflux inhibition (fraction of control) below 0?
rule met

In the record for "O=C(/C=C/c1ccc2c(c1)OCCCO2)c1ccc2ccccc2c1O" , is efflux inhibition (fraction of control) less than 0?
rule not met

Record "O=C(O)c1ccc(OCCn2ccnc2)cc1" : is its efflux inhibition (fraction of control) strictly below 0?
rule not met

Does the reported efflux inhibition (fraction of control) of the following molecule sit strictly below 0? CC1CCCC(C)N1NC(=O)c1ccc(Cl)c(S(N)(=O)=O)c1 (centres undefined)
rule not met

is_below(efflux inhibition (fraction of control), 0) for "O=C(/C=C/c1ccccc1)c1ccccc1" ?
rule met

Determine if O=C(c1ccco1)N(CCC(c1ccccc1)c1ccco1)Cc1ccco1 (centres undefined) shows efflux inhibition (fraction of control) strictly lower than 0.
rule not met

Dear reviewer, please state whether CC(=O)NC(NC(=S)N1CCCCCC1)C(Cl)(Cl)Cl (centres undefined) has efflux inhibition (fraction of control) strictly beneath 0.
rule not met

# TODO verify efflux inhibition (fraction of control) < 0 strictly for this molecule: "Nc1ccc(S(=O)(=O)NC(=O)c2ccccc2)cc1"
rule met

Record "COc1cc(COc2ccc3c(C)c(Cc4ccccc4)c(=O)oc3c2)cc(OC)c1OC" : is its efflux inhibition (fraction of control) strictly below 0?
rule not met

Below 0 on efflux inhibition (fraction of control)? Entry CN1CCc2c(n(CC(O)CN(CCO)CCO)c3ccccc23)C1=O (centres undefined)
rule not met

Take the molecule COc1ccc(CN2CCCCC2C(=O)Nc2ccc(OC)c(OCC(C)C)c2)cc1OC (centres undefined) and say whether its efflux inhibition (fraction of control) is less than 0.
rule met

In plain terms, does Cc1ccc(S(=O)(=O)N2CCC(C(=O)N[C@@H](C)C(=O)NC3CCS(=O)(=O)C3)CC2)cc1 (some centres undefined) come in under 0 for efflux inhibition (fraction of control)?
rule not met

Threshold test, efflux inhibition (fraction of control) < 0: "CC(=O)Oc1ccc2c(=O)c(Oc3ccccc3[N+](=O)[O-])coc2c1"
rule met

Is efflux inhibition (fraction of control) strictly under 0 for the entry Fc1ccccc1CNCCC(Cc1ccccc1)c1ccc2c(c1)OCO2 (centres undefined) ?
rule met

Bench note: check whether "O=C(O)CCCCCNC(=O)Nc1ccc2c(c1)OCCO2" shows efflux inhibition (fraction of control) below 0
rule not met

Does CC12CN3CC(C)(CN(C1)C3c1ccc(Cl)cc1Cl)C2=O (centres undefined) have efflux inhibition (fraction of control) strictly under 0?
rule met

Below 0 on efflux inhibition (fraction of control)? Entry "Cc1nonc1CN(C)C(=O)c1ccc(OC2CCN(C(=O)c3cccnc3)CC2)cc1"
rule not met

Is the reported efflux inhibition (fraction of control) for "CCc1cc(=O)oc2cc3occ(-c4ccc(OC)c(F)c4)c3cc12" strictly below 0?
rule not met
